Target: Metabotropic glutamate receptor 4 (Homo sapiens, UniProt Q14833)
Sequence (Q14833 whole entry): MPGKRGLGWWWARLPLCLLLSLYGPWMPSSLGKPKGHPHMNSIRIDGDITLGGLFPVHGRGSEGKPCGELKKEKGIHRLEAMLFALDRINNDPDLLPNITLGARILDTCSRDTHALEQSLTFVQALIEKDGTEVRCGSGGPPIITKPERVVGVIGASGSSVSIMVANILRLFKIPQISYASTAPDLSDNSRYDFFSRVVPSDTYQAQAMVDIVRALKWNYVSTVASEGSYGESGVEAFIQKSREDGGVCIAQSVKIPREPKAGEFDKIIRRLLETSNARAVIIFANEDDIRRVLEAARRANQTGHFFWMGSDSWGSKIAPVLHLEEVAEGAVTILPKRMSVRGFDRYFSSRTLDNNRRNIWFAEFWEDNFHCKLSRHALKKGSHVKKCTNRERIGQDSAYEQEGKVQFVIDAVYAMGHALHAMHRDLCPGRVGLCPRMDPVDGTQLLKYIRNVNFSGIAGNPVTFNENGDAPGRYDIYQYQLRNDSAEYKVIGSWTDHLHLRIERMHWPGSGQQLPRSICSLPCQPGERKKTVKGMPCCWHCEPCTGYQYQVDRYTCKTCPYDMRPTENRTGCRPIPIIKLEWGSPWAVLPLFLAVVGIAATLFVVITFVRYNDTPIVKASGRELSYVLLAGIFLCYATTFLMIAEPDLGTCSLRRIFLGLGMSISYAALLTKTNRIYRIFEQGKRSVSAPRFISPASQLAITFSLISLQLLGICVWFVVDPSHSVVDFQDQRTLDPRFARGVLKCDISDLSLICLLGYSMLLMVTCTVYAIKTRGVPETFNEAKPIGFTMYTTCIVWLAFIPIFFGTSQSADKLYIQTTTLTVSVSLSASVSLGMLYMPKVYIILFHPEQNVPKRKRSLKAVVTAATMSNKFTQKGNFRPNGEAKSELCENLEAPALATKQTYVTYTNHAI
Test: Positive allosteric modulation of human mGluR4 expressed in CHO cells co-expressing Gqi5 assessed as increase in glutamate-induced calcium flux preincubated for 2.5 mins followed by glutamate addition by Fluo-4-AM dye based fluorescence assay
Format: functional, cell-based
Conditions: read-out: EC50
pEC50: −log10 of the molar value.
Kind request: treat 7 as inclusive, so pEC50 at 7 or higher is TRUE, anything lower is FALSE.

Take a look at these entries with their results.
{"COMPOUND": "Cc1nn(C(C)C)c2cc(Nc3n[nH]c4cccnc34)ccc12", "TARGET OF ASSAY": "Metabotropic glutamate receptor 4 (Homo sapiens, UniProt Q14833)", "ASSIGNED CATEGORY": "FALSE"}
{"COMPOUND": "Cn1nc(C(=O)N2CCCC2)c2ccc(Nc3n[nH]c4cccnc34)cc21", "TARGET OF ASSAY": "Metabotropic glutamate receptor 4 (Homo sapiens, UniProt Q14833)", "ASSIGNED CATEGORY": "FALSE"}
{"COMPOUND": "Cn1nc(C2CC2)c2ccc(Nc3n[nH]c4ncccc34)cc21", "TARGET OF ASSAY": "Metabotropic glutamate receptor 4 (Homo sapiens, UniProt Q14833)", "ASSIGNED CATEGORY": "TRUE"}
{"COMPOUND": "[2H]C([2H])([2H])Cn1nc(C2CC2)c2ccc(Nc3n[nH]c4cccnc34)cc21", "TARGET OF ASSAY": "Metabotropic glutamate receptor 4 (Homo sapiens, UniProt Q14833)", "ASSIGNED CATEGORY": "TRUE"}
{"COMPOUND": "Cn1nc(C(=O)N2CCC(F)(F)C2)c2ccc(Nc3n[nH]c4cccnc34)cc21", "TARGET OF ASSAY": "Metabotropic glutamate receptor 4 (Homo sapiens, UniProt Q14833)", "ASSIGNED CATEGORY": "FALSE"}

Given the entry `Cn1cnc2ccc(Nc3n[nH]c4cccnc34)cc21` , answer whether its pEC50 meets or surpasses 7.
FALSE

`Cc1nn(C)c2ccc(Nc3n[nH]c4cccnc34)cc12` ?
FALSE

Cn1nc(C(=O)NC2CC(F)C2)c2ccc(Nc3n[nH]c4cccnc34)cc21 (stereo unspecified) ?
FALSE
